Exercise: for every item that follows, state its recorded growth inhibition.
test: NCI Yeast Anticancer Drug Screen. Data for the rad50EPP+ strain (AID 151);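 also: 0% = growth of vehicle-treated control cultures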; conditions: S. cerevisiae rad50 mutant strain, at 100.0 µM, active compounds read high
Compounds without any hit were thinned out: in the full panel of roughly 79,000, 15% have a hit. Calls of active or inactive are those of the source. Rule as the data show it: active = growth inhibition above about 70%; inactive = the rest.

The examples below pair each entry with its known result.
| compound | growth inhibition |
| --- | --- |
| CC(=O)Nc1ccc2c(c1)C(=Nc1ccc(C(=O)O)cc1)c1ccccc1-2 | 92% (active) |
| CCC#CCCCOC(=O)c1cc([N+](=O)[O-])cc([N+](=O)[O-])c1 | 98% (active) |
| O=C(COC(=O)c1cc(O)c(O)c(O)c1)c1ccc(-c2ccccc2)cc1 | 96% (active) |
| O=[N+]([O-])c1ccc2nc3ccccc3cc2c1 | 96% (active) |

Provide growth inhibition for all items below, preserving their order.
1. O=[N+]([O-])C(=C(Sc1ccccc1)Sc1ccccc1)C(Cl)=C(Cl)Cl
2. CCCS(=O)(=O)Nc1ccc(Nc2c3ccccc3nc3ccccc23)c(OC)c1

Result:
48% (inactive)
69% (inactive)

Provide growth inhibition for all items below, preserving their order.
1. C[Si](C)(C)CNC(=O)OCc1ccccc1
2. Clc1ccc(SC(/C=C/NNC2=NC(c3ccccc3)C(c3ccccc3)=NN2)c2ccccc2)cc1 (stereo not drawn)

Result:
41% (inactive)
0% (inactive)

====

assay: NCI Yeast Anticancer Drug Screen. Data for the mec2-1 strain (AID 157); conditions: S. cerevisiae mec2-1 strain, at 100.0 µM, active compounds read high
This is part of a sample that, as a whole, favours compounds with a hit. Of some 79,000 tested, about 15% had one in any assay.
Label MET when growth inhibition >= 90%; otherwise NOT MET.

| compound | class |
| --- | --- |
| CCCCCCCCCCCCCC[N+](C)(CC(=O)[O-])Cc1ccccc1 (stereo unspecified) | MET |
| O=C([O][Sn]([O]C(=O)c1ccccc1)([c]1ccccc1)[c]1ccccc1)c1ccccc1 | NOT MET |
| Cc1ccc(N)c(S)c1 | MET |
| CC[C@@]1(O)C(=O)OCc2c1cc1n(c2=O)Cc2cc3c(N)cccc3nc2-1 | NOT MET |

Continue with the next compound.
Ask: API: above_or_equal(metric=growth inhibition, cutoff=90%) for item `Cc1cc2c(cc1C(=O)CCC(=O)O)CC1(C2)Cc2cc(C)c(C(=O)CCC(=O)O)cc2C1`
Result: NOT MET

====

Exercise: for every item that follows, state its recorded growth inhibition.
assay: NCI Yeast Anticancer Drug Screen. Data for the mec2-1 strain (AID 157); conditions: S. cerevisiae mec2-1 strain, at 33.0 µM, active compounds read high
This is part of a sample that, as a whole, favours compounds with a hit. Of some 79,000 tested, about 15% had one in any assay.
One number for each entry, in %.

| compound | readout | experimental-result |
| --- | --- | --- |
| O=C(O)c1ccccc1NC(=S)c1ccccc1 | growth inhibition | -23 |
| CC[C@@]1(O)C(=O)OCc2c1cc1n(c2=O)Cc2cc3c(N)cccc3nc2-1 | growth inhibition | 23 |
| Brc1ccc(-c2cc3c(cc2C2SCCS2)OCO3)cc1 | growth inhibition | -27 |
| BrCC[P+](c1ccccc1)(c1ccccc1)c1ccccc1 | growth inhibition | 95 |
| O=C1CSc2cc([N+](=O)[O-])ccc2N1 | growth inhibition | -21 |
| COc1ccc(C2c3cc4c(cc3OC(C)(O)C2C)OCO4)c(OC)c1 (stereo unspecified) | growth inhibition | 15 |
| CC(C)(C)c1nc2c(o1)C(=O)c1ccccc1C2=O | growth inhibition | 57 |
| Cc1c(Cl)ccc2c1S(=O)(=O)c1cccc(Cl)c1-2 | growth inhibition | -28 |

Provide growth inhibition for all items below, preserving their order.
1. CN(C)c1nc2sc3c(c2c(=O)o1)CCCC3
2. O=C1CSC(/C=C/c2ccccc2)N1c1ccc(-c2ccc(-n3c(-c4ccccc4)nc4ccccc4c3=O)cc2)cc1 (stereo unspecified)

Result:
26
7

Ask: Entry `CC(C)/C(Cl)=N\OC(=O)Nc1cccc(Cl)c1` has what growth inhibition?
Result: 2

====

assay: NCI Yeast Anticancer Drug Screen. Data for the rad14 strain (AID 159);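 also: 0% = growth of vehicle-treated control cultures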; conditions: S. cerevisiae rad14 strain growth inhibition; at 100.0 µM; active compounds read high
Compounds without any hit were thinned out: in the full panel of roughly 79,000, 15% have a hit.
readout: growth inhibition (%)
Give bare numbers, in %.

| molecule | unit-symbol | growth inhibition |
| --- | --- | --- |
| CC(O)C(O)C(O)C(/C=N\Nc1ccccc1)=N/Nc1ccccc1 (stereo unspecified) | % | 99 |

Provide growth inhibition for all items below, preserving their order.
1. N#CC(C(=O)Nc1ccccc1)C1=C(Cl)C(=O)c2ccccc2C1=O (stereo unspecified)
2. CN(C)c1nc2sc3c(c2c(=O)o1)CCCC3
3. NC(=S)N/N=C\c1nccc2ccccc12
4. Clc1ccccc1C1OC1c1ccccc1Cl (stereo unspecified)

Result:
95
45
99
-9

====

experiment: NCI Yeast Anticancer Drug Screen. Data for the CLN2oe strain (AID 163);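 also: 0% = growth of vehicle-only control cultures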; details: S. cerevisiae CLN2oe strain, at 1.2 µM, active compounds read high
The panel holds about 79,000 compounds, 15% with a hit somewhere; the sample as a whole holds those more often.
Exercise: for every item that follows, state its recorded growth inhibition.
Numbers only, in %.

Provide growth inhibition for all items below, preserving their order.
1. O=Cc1cccc2ccc3ccccc3c12
2. Cn1c(=O)c(-c2ccccc2)c(N=[N+]=[N-])c2ccccc21
3. CN(CCc1ccccn1)c1ccc2c(c1)Cc1ccccc1-2
4. COc1cc2ccc(/C=C\[N+](=O)[O-])cc2cc1OC
5. O=C(N=Nc1cc(Cl)ccc1Cl)NNc1cc(Cl)ccc1Cl

Result:
[-1, 5, -5, 12, 0]

====

assay: NCI Yeast Anticancer Drug Screen. Data for the cln2 rad14 strain (AID 165);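 also: 0% = growth equal to vehicle treated cultures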; conditions: S. cerevisiae cln2 rad14 strain, at 50.0 µM
This is part of a sample that, as a whole, favours compounds with a hit. Of some 79,000 tested, about 15% had one in any assay. Activity calls are given as the source filed them. Cut-off read from the data, not from the text of the source: active = growth inhibition above about 70%; inactive = the rest.
API: response.call in active, inactive

| compound | class |
| --- | --- |
| CCS(=O)(=O)c1ccc(/C=C/C=N/NC(=S)NCC(C)C)cc1 | inactive |

Ask: Per the records of this test, what outcome belongs to `Cc1ccc2ccc3cccc4ccc1c2c34` ?
Result: inactive

Ask: Per the records of this test, what outcome belongs to `O=C(NCCCCNCCCNC(=O)c1cc(-c2ccccc2)nc2ccccc12)c1cc(-c2ccccc2)nc2ccccc12` ?
Result: active

Ask: Per the records of this test, what outcome belongs to CC(/C=C/c1ccc2c(c1)OCO2)[N+](=O)[O-] (stereo unspecified) ?
Result: active

Ask: Per the records of this test, what outcome belongs to `C/C(=N\NC(=S)N1CCCCC1)c1cccc(C)n1` ?
Result: active

Ask: Per the records of this test, what outcome belongs to `C/C(=N/NC(=S)N1CCCCCC1)c1cccc(/C(C)=N\NC(=S)N2CCCCCC2)n1` ?
Result: active

Ask: Per the records of this test, what outcome belongs to `CCN(CC)C(=S)N/N=C(/C)c1cccc(/C(C)=N\NC(=S)N(CC)CC)n1` ?
Result: inactive

Ask: Per the records of this test, what outcome belongs to O=[N+]([O-])c1ccc2c(c1)C(N1CCN(CCO)CC1)Cc1ccc(F)cc1S2 (stereo unspecified) ?
Result: active

Ask: Per the records of this test, what outcome belongs to `Cc1ccc(Nc2nc3c(=O)n(C)c(=O)n(C)c3nc2Nc2ccc(C)cc2)cc1` ?
Result: active

Ask: Per the records of this test, what outcome belongs to `CCCCCCCCCCCC1=C(O)C(=O)C=C(O)C1=O` ?
Result: inactive

Ask: Per the records of this test, what outcome belongs to `O=Nc1cccnc1N=O` ?
Result: active

Ask: Per the records of this test, what outcome belongs to `COc1ccc(O)c(/C=N\Nc2ccccc2)c1` ?
Result: active

Ask: Per the records of this test, what outcome belongs to `Cn1c2ccccc2c(=O)c2cc(NC(=O)CCCCC(=O)Nc3ccc4c(c3)c(=O)c3ccccc3n4C)ccc21` ?
Result: inactive

Ask: Per the records of this test, what outcome belongs to `Cn1ccnc1Oc1ccc(Cl)cc1` ?
Result: inactive

Ask: Per the records of this test, what outcome belongs to `CCC/C(Cl)=N\OC(=O)Nc1ccc(Br)cc1` ?
Result: active

Ask: Per the records of this test, what outcome belongs to `c1ccc2c(c1)Oc1cccc3cccc-2c13` ?
Result: inactive

Ask: Per the records of this test, what outcome belongs to `Brc1ccc(-c2cc3c(cc2C2SCCS2)OCO3)cc1` ?
Result: inactive

Ask: Per the records of this test, what outcome belongs to `COC(=O)c1ccc(CCC2=CC(=O)C(Br)=CC2=O)cc1` ?
Result: inactive

Ask: Per the records of this test, what outcome belongs to Clc1ccc(SC(/C=C/NNC2=NC(c3ccccc3)C(c3ccccc3)=NN2)c2ccccc2)cc1 (stereo unspecified) ?
Result: active
